Tested on: 26S proteasome semipurified from RS4;11 cells, Trypsin-like (T) activity
Assay: Proteasome activity on semipurified cell extract (fluorogenic substrate)
Assay type: biochemical, human
Conditions: RS4;11 extract, 60 min at 37 °C, cell-free
pIC50: −log10 of the molar value.
quantity.kind: pIC50

Any idea what its pIC50 is? The compound is F[P-](F)(F)(F)(F)F.OCP(CO)CO.OCP(CO)CO.OCP(CO)CO.OCP(CO)CO.[Cu+] [CP, [Cu(thp)4][PF6]]
~4.96

====

Tested on: 26S proteasome semipurified from SEM cells, Trypsin-like (T) activity
Assay: Proteasome activity on semipurified cell extract (fluorogenic substrate)
Format: biochemical, human
Conditions: 60 min at 37 °C, cell-free
quantity.kind: IC50

What IC50 value was documented for this compound, F[P-](F)(F)(F)(F)F.OCP(CO)CO.OCP(CO)CO.OCP(CO)CO.OCP(CO)CO.[Cu+] [CP, [Cu(thp)4][PF6]] ?
~12 µM
